Listing of entries alongside the reported cAMP release, % activity, 1 nM.
Tested on: human GLP-1 receptor (human, UniProt P43220 24-463)
Sequence (P43220 24-463): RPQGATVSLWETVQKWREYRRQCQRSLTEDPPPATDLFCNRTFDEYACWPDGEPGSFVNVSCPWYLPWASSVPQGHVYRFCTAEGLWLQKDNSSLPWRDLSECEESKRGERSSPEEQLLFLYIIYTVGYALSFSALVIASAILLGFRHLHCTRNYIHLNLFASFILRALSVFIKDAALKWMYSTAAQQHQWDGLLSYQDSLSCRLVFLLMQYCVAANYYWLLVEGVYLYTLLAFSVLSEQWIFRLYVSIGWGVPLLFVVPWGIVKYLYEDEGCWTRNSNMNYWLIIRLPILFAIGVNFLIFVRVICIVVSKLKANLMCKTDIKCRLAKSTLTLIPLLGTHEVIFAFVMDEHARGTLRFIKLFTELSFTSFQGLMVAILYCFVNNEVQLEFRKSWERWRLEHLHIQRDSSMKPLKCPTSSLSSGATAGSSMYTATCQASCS
Experiment summary: cell-based or functional assay
Non-standard residues stand in square brackets, D forms with d. No end group written: not given here. Bip(2'-Et-4'-OMe) = CCc1cc(OC)ccc1-c1ccc(C[C@H](N)C(=O)O)cc1; 2Cl‑APPA = 2-amino-5-(2-chlorophenyl)pentanoic acid; αMePhe(2-F) = C[C@](N)(Cc1ccccc1F)C(=O)O; hhPhe = N[C@@H](CCCc1ccccc1)C(=O)O; aThr = C[C@H](O)[C@H](N)C(=O)O; CNB = not defined here; Aib = CC(C)(N)C(=O)O

>  <Binder>
H[Aib][CNB]G[aThr][αMePhe(2-F)]TSD[Bip(2'-Et-4'-OMe)][hhPhe] (reading uncertain) [Seq. ID. No. 110: H-Aib-(CNB)-G-T(allo)-(α-Me-2F-Phe)-TSD-Bip(OMe)-(APPA)]

>  <Value unit>
%

>  <cAMP release, % activity, 1 nM>
38

$$$$
>  <Binder>
H[Aib][CNB]GTFTSD[Bip(2'-Et-4'-OMe)][2Cl‑APPA] (reading uncertain) [Seq. ID. No. 82: H-Aib-(CNB)-GTFTSD-Bip(OMe)-(2Cl-APPA)]

>  <Value unit>
%

>  <cAMP release, % activity, 1 nM>
78

$$$$
>  <Binder>
H[Aib][CNB]G[aThr][αMePhe(2-F)][aThr]SD[Bip(2'-Et-4'-OMe)][hhPhe] (reading uncertain; also: reduced (CH2) bonds between 9-10 and 10-11) [Seq. ID. No. 202: H-Aib-(CNB)-G-T(allo)-(α-Me-2F-Phe)-T(allo)-SD-(CH2)-Bip(OMe)-(CH2)-(APPA)]

>  <Value unit>
%

>  <cAMP release, % activity, 1 nM>
99

$$$$
